testedSystem: T1, PD-L1 antibody
T1 construct: also called anti-PD-L1
assayName: dissociation ELISA: PD-L1 antibody dilution series on immobilised biotinylated peptide, incubation at pH 5.4
Ends that are not written are not given here.
readout: EC50 (nM)

binder	readout	val
GGLCSTFYEPQVDICY (cysteine pairing not given here; also: biotinylated, chemically synthesized biotinylated peptide) [Peptide 29]	EC50	1.5

A: QLFYPSTYHIID (also: biotinylated, chemically synthesized biotinylated peptide) [Peptide 20]
B: GGMCHELFYSNLNWCQ (cysteine pairing not given here; also: biotinylated, chemically synthesized biotinylated peptide) [Peptide 22]
C: GGHCVDMVDFYQQTCQ (cysteine pairing not given here; also: biotinylated, Chemically synthesized biotinylated peptide; also called 23 (Control)) [Peptide 23]
D: GGCHNKSGLFYHYC (cysteine pairing not given here; also: biotinylated, chemically synthesized biotinylated peptide) [Peptide 24]
Rank by EC50 (largest to smallest). API: response body holds the labels in the requested order. C, D, A, B
(C: 3.9 nM, D: 1.3 nM, A: 0.84 nM, B: 0.35 nM)
